# measured.target: SMARCA4 (Homo sapiens)
# Construct: SMARCA2 and SMARCA4 protein degradation in MV4-11 cells; endogenous in cells; host or cells: MV4-11
# Sequence (P51532 whole entry): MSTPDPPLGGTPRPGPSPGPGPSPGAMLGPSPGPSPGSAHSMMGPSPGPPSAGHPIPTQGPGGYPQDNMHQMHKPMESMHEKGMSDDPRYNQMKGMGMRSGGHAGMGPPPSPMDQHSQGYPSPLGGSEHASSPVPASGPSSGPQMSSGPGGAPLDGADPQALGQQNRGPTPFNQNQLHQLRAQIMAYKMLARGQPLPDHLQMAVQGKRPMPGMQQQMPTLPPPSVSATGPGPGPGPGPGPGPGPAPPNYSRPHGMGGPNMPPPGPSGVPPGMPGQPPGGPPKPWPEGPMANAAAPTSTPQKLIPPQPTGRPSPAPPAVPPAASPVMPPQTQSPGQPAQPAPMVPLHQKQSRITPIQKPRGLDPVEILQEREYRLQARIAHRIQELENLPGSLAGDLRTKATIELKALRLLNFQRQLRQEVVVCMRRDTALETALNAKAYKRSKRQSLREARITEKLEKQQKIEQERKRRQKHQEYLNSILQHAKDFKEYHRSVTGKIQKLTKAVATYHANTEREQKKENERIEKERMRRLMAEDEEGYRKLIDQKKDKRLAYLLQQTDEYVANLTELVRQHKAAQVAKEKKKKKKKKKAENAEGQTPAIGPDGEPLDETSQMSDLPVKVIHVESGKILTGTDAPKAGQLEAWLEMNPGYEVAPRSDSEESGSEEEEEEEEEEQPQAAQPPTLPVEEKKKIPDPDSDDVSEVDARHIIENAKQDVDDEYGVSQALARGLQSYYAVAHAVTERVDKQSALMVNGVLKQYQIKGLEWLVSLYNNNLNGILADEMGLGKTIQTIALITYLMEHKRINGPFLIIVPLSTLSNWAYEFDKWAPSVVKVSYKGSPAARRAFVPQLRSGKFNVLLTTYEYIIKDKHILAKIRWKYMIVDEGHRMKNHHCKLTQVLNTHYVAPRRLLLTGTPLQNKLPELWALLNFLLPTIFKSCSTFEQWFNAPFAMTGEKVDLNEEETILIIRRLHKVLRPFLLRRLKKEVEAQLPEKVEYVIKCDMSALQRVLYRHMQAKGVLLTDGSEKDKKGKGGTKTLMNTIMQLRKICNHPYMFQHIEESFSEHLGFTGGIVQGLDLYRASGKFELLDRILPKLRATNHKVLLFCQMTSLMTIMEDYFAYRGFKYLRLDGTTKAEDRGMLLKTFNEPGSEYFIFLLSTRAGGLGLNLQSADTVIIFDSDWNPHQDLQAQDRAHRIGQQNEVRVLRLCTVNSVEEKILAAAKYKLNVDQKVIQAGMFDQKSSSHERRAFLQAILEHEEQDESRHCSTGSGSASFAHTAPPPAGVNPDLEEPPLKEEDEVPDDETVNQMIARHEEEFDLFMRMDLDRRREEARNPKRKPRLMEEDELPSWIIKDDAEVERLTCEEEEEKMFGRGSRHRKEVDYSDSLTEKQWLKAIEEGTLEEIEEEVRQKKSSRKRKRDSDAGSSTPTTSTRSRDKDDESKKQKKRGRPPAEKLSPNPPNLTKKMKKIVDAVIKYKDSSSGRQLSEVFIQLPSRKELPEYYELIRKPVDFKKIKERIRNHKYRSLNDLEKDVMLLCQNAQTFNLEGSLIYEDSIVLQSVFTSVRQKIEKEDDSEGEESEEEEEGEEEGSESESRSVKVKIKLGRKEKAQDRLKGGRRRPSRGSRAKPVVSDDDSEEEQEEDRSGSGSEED
# assay.protocol: SMARCA4 Western blot MV4-11 degradation
# Format: cell-based
# condition.notes: MV4-11 cells
experimental.endpoint: SMARCA4 MSD MV411 degradation 24 h: average Dmax %

compound	assay.value
Cc1ncsc1-c1ccc([C@H](C)NC(=O)[C@@H]2C[C@@H](O)CN2C(=O)[C@@H](NC(=O)[C@H]2CC3(C2)C[C@H](N2CCC(c4ccc(N5C6CCC5CN(c5cc(-c7ccccc7O)nnc5N)C6)cc4)CC2)C3)C(C)(C)C)cn1 (single isomer, unassigned) [I-5]	D (D (<50% degradation))
Cc1ncsc1-c1ccc(CNC(=O)[C@@H]2C[C@@H](O)CN2C(=O)[C@@H](NC(=O)[C@H]2CC3(C2)C[C@H](N2CCN(c4cnc(N5C6CCC5CN(c5cc(-c7ccccc7O)nnc5N)C6)nc4)CC2)C3)C(C)(C)C)cc1 (single isomer, unassigned)	D (D (<50% degradation))
Cc1n[nH]c(C)c1-c1ccc(CNC(=O)[C@@H]2C[C@@H](O)CN2C(=O)[C@@H](NC(=O)[C@H]2CC3(C2)C[C@H](N2CCC(c4cnc(N5C6CCC5CN(c5cc(-c7ccccc7O)nnc5N)C6)nc4)CC2)C3)C(C)(C)C)cc1 (stereo partly drawn)	D (D (<50% degradation))
